assay overview: Human liver microsome stability
Format: in vitro ADME
experimental context: human liver microsomes, pH 7.4
Mark Yes only when microsomal CLint at 0.99 µM stays strictly below 30 µL/min/mg. Values equal to the cut-off are No.

COCCS(=O)(=O)Nc1cccc(Cc2cc(C(N)=O)c(Nc3ccc(I)cc3F)c(F)c2F)c1F [Compound D-5]: Yes
CNS(=O)(=O)Nc1nccc(Cn2cc(C(=O)NC3CC3)c(Nc3ccc(I)cc3F)c(C)c2=O)c1F [Compound P-6]: Yes
CC1(NS(=O)(=O)Nc2nccc(Cc3cc(C(=O)NC4CC4)c(Nc4ccc(I)cc4F)c(F)c3F)c2F)CCC1 [Compound A-47]: No
CNS(=O)(=O)Nc1cc(Cc2cc(C(N)=O)c(Nc3ccc(I)cc3F)c(F)c2F)ccn1 [Compound C-3]: Yes
NC(=O)c1c(Nc2ccc(I)cc2F)cncc1Oc1cccc(NS(=O)(=O)C2CC2)c1 [Ref-4, reference compound]: No
C=Cc1ccc(Nc2c(C(N)=O)cc(Cc3ccnc(NS(=O)(=O)NC)c3F)c(F)c2F)c(F)c1 [Compound A-19]: No
CCCNS(=O)(=O)Nc1nccc(Cc2cc(C(N)=O)c(Nc3ccc(I)cc3F)c(F)c2F)c1F [Compound A-41]: Yes
CC1(NS(=O)(=O)Nc2nccc(Cc3cc(C(N)=O)c(Nc4ccc(I)cc4F)c(F)c3F)c2F)CC1 [Compound A-23]: Yes
CCS(=O)(=O)Nc1cccc(Cc2cc(C(=O)NC3CC3)c(Nc3ccc(I)cc3F)n(C)c2=O)c1F [Compound K-8]: No
CNS(=O)(=O)Nc1nccc(Cc2cc(C(=O)NOC)c(Nc3ccc(Br)cc3F)c(F)c2F)c1F [Compound G-3]: Yes
CNS(=O)(=O)Nc1cccc(Cc2cc(C(=O)NC3CC3)c(Nc3ccc(C4CC4)cc3F)c(F)c2F)c1F [Compound D-15]: No
CNS(=O)(=O)Nc1nccc(Cc2cc(C(N)=O)c(Nc3ccc(I)cc3F)cc2F)c1F [Compound I-1]: Yes
NC(=O)c1cc(Cc2ccnc(NS(=O)(=O)NCC3COC3)c2F)c(F)c(F)c1Nc1ccc(I)cc1F [Compound A-21]: Yes
CNS(=O)(=O)Nc1nccc(Cc2cc(C(N)=O)c(Nc3ccc(I)cc3F)n(C)c2=O)c1F [Compound J-1]: Yes
CNS(=O)(=O)Nc1nccc(Cc2cc(C(=O)NOC)c(Nc3ccc(C4CC4)cc3F)c(F)c2F)c1F [Compound G-2]: No
CNS(=O)(=O)Nc1cccc(Cc2cc(C(=O)NC3CC3)c(Nc3ccc(I)cc3F)c(F)c2F)c1 [Compound C-6]: No
CCS(=O)(=O)Nc1cccc(Cc2cc(C(=O)NOC)c(Nc3ccc(I)cc3F)c(F)c2F)c1F [Compound E-1]: Yes
CCS(=O)(=O)Nc1nccc(Cc2cc(C(=O)NC3CC3)c(Nc3ccc(C4CC4)cc3F)c(F)c2F)c1F [Compound G-7]: Yes
COCC(C)(C)NS(=O)(=O)Nc1cccc(Cc2cc(C(N)=O)c(Nc3ccc(I)cc3F)c(F)c2F)c1F [Compound D-2]: No
NC(=O)c1cc(Cc2ccnc(NS(=O)(=O)NC3CC3)c2F)c(F)cc1Nc1ccc(I)cc1F [Compound I-3]: Yes
COCCNS(=O)(=O)Nc1nccc(Cc2cc(C(N)=O)c(Nc3ccc(I)cc3F)n(C)c2=O)c1F [Compound J-2]: Yes
NC(=O)c1cc(Cc2ccnc(NS(=O)(=O)NCC3CC3)c2F)c(F)c(F)c1Nc1ccc(I)cc1F [Compound A-36]: Yes
Cn1c(Nc2ccc(I)cc2F)c(C(=O)NOC(C)(C)C)cc(Cc2ccnc(NS(=O)(=O)NC3CC3)c2F)c1=O [Compound J-11]: No
CNS(=O)(=O)Nc1nccc(Cc2cc(C(=O)NC3CC3(F)F)c(Nc3ccc(I)cc3F)c(F)c2F)c1F (racemic) [Compound B-6]: Yes
NC(=O)c1cc(Cc2cccc(NS(=O)(=O)C3COC3)c2F)c(F)c(F)c1Nc1ccc(I)cc1F [Compound E-21]: Yes
CCS(=O)(=O)Nc1nccc(Cn2cc(C(=O)NC3CC3)c(Nc3ccc(I)cc3F)c(C)c2=O)c1F [Compound P-4]: Yes
CNS(=O)(=O)Nc1cccc(Cc2cc(C(N)=O)c(Nc3ccc(C4CC4)cc3F)c(F)c2F)c1F [Compound D-14]: Yes
CNS(=O)(=O)Nc1nccc(Cc2cc(C(N)=O)c(Nc3ccc(I)cc3C)c(F)c2F)c1F [Compound C-5]: Yes
CONC(=O)c1cc(Cc2cccc(NS(=O)(=O)C3(C)CC3)c2F)c(=O)n(C)c1Nc1ccc(I)cc1F [Compound K-7]: No
